Taken from PubChem BioAssay AID1296.

Test: insulin gene promoter stimulation in islet cells – imaging, TRM-6 cells, eGFP reporter, cell count, primary screen (AID 1296);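 further: cells counted after 48 h compound exposure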
Conditions: at 2 µM; measured here: cell count (toxicity)
The whole screen tested about 130,000 compounds, of which about 1,000 (0.77%) were called active. About 1% were inconclusive and are not listed. This is one part of a sample in which actives are shown more often than they occur.
readout name: normalized cell count
Include the unit right after the number.

Sample answers from the record:
- compound: "Cn1cccc1-c1nc2ccccc2n1C"
  readout name: "normalized cell count"
  reported: "75.7%"
- compound: "CCCC(=O)Nc1ccc(C(=O)NCCCn2ccnc2)cc1"
  readout name: "normalized cell count"
  reported: "48.4%"
- compound: "C=CCn1c(CCc2ccc(OC(C)C)cc2)n[nH]c1=S"
  readout name: "normalized cell count"
  reported: "117%"
- compound: "CCC1SC(CC)C(=O)N(CC(=O)NC2CCCCC2)C1=O (configuration not stated)"
  readout name: "normalized cell count"
  reported: "80.9%"

[ask] Dear colleague, I am looking for the recorded normalized cell count of the following compound: CCOC(=O)N1CCN(C(=O)COc2ccc(Cl)cc2C)CC1
[reply] 63.4%

[ask] For the compound COc1ccc(-c2nc3ccccc3n2CCC(C)C)cc1OC , what normalized cell count is on record?
[reply] 74.4%

====

Assay: insulin gene promoter stimulation in islet cells – imaging, TRM-6 cells, eGFP reporter, cell count, primary screen (AID 1296);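 further: cells counted after 48 h compound exposure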
Settings: at 2 µM; measured here: cell count (toxicity)
Among all 130,000 compounds or so, about 1,000 (0.77%) were called active. Roughly 1% stayed inconclusive and do not appear here. The sample holds actives, similar compounds and a random draw of the others, so the mix is not that of the screen.
Below: a set of entries, each annotated with reported normalized cell count.
Write the answer as a number in %, unit excluded.

Solved cases (5 shown):
- molecule: "N#CCC(=O)NC(=O)NCC1CC1"
  normalized cell count / %: 118
- molecule: "CCc1ccc(NC(=O)Nc2ccncc2)cc1"
  normalized cell count / %: 67.1
- molecule: "Cc1ccc(OC(=O)c2cc3ccccc3o2)cc1"
  normalized cell count / %: 174
- molecule: "Cc1ccccc1OCCOc1ccc([N+](=O)[O-])cc1/C=N/n1cnnc1"
  normalized cell count / %: 5.92
- molecule: "COc1cc(NC(=O)CSc2nnc3ccc(-c4ccncc4)nn23)cc(OC)c1"
  normalized cell count / %: 108

[ask] Looking for the measured normalized cell count of COc1cc(/C=C2/C(=O)ON=C2C)ccc1OCc1cccc(F)c1 , can you help?
[reply] 98.9

[ask] Quick one: normalized cell count of COc1cccc(OC)c1C(=O)Nc1ccc(Cc2ccncc2)cc1 ?
[reply] 107

[ask] Tell me the measured normalized cell count of CCOC(=O)CNC(=O)CSc1ccc2nnc(-c3cccnc3)n2n1 , please.
[reply] 132

[ask] // lookup normalized cell count for CC1=NNC(=O)C1CCC(=O)N/N=C\c1ccc(Cl)c(Cl)c1 (configuration not stated)
[reply] 124

[ask] Dear colleague, I am looking for the recorded normalized cell count of the following molecule: C/C(=N\NC(=O)c1ccc(NS(=O)(=O)c2cccs2)cc1)c1ccc2ccccc2c1
[reply] 72.7

[ask] What value of measured normalized cell count is listed for O=C(Nc1ccncc1)c1c(F)cccc1F ?
[reply] 90.9

[ask] Query (molecule): CCOC(=O)NN1C(=O)c2ccccc2NC1c1ccccc1O (configuration not stated) ; field requested: normalized cell count
[reply] 107

====

Assay: insulin gene promoter stimulation in islet cells – imaging, TRM-6 cells, eGFP reporter, cell count, primary screen (AID 1296);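 further: cells counted after 48 h compound exposure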
Conditions: at 2 µM; measured here: cell count (toxicity)
The campaign covered roughly 130,000 compounds. About 1,000 (0.77%) were called active. Not shown: some 1% with an inconclusive outcome. Shown is part of a subset that was picked to be rich in actives.
// reported normalized cell count per item
Numbers only; they are read as %.

[ask] Could you share which normalized cell count value was measured for COC(=O)CSc1nc(C)c2ccc(OC)cc2n1 ?
[reply] 69.4

[ask] What value of measured normalized cell count is listed for Cc1nnc(SCc2cccc(Cl)c2)n(N)c1=O ?
[reply] 36.8

[ask] Need normalized cell count, item Cc1cc(C)c2c(n1)nn1c(N3CCN(c4cccc(Cl)c4)CC3)cc(C)nc21
[reply] 99.8

[ask] // query normalized cell count value for entry Cc1ccc(C(=O)CSc2nc3ccccc3c(=O)n2N)o1
[reply] 137

[ask] For CCNC(=S)N(CCc1c(C)[nH]c2ccc(C)cc12)Cc1ccco1 , what is its reported normalized cell count?
[reply] 55.7

[ask] Any idea what normalized cell count was measured for Cc1ccc(C(C)(C)C)c(OCCCCN2CCCC2)c1 ?
[reply] 97.2

[ask] Find the recorded normalized cell count belonging to O=C(CSc1ncnc2scc(-c3ccccc3)c12)NCc1ccc2c(c1)OCO2 and report it.
[reply] 109

[ask] Query: normalized cell count; subject: Cn1c(SCC(=O)N2CCCc3ccccc32)nc2ccccc2c1=O
[reply] 100

[ask] What value of normalized cell count has been recorded for this entry: Cc1cccc(CSc2nnc(Cn3c(=O)sc4ccccc43)n2C)c1
[reply] 79.6

[ask] So what's the measured normalized cell count for this one? Cc1ccc(C(=O)N/C(=C/c2cccs2)C(=O)N2CCCCC2)cc1
[reply] 111

[ask] Query: normalized cell count; subject: Clc1ccc(-c2nnc(-c3ccccc3)nc2N2CCSCC2)cc1
[reply] 97.6

[ask] Fill in: normalized cell count of CCN(CC(=O)NC(=O)NCc1ccccc1)Cc1nc2ccccc2c(=O)[nH]1 is ___
[reply] 68.7

[ask] Name the reported normalized cell count value associated with the compound CCCN1CC=C2C(C#N)=C(N)C(C#N)(C#N)C(c3cc(OC)ccc3OC)C2C1 (configuration not stated)
[reply] 123

[ask] Sample CCOc1cc(/C=C2/C(=N)N3OC(C)=CC3=NC2=O)ccc1OC — what was its normalized cell count?
[reply] 55.1

====

Test: insulin gene promoter stimulation in islet cells – imaging, TRM-6 cells, eGFP reporter, cell count, primary screen (AID 1296);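 further: cells counted after 48 h compound exposure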
Conditions: at 2 µM; measured here: cell count (toxicity)
Out of some 130,000 compounds screened, about 1,000 (0.77%) were called active. About 1% were inconclusive and are not listed. What follows is part of a selection rich in actives, with near analogues and random picks from the rest.
Overview of reported normalized cell count across a group of compounds:

- compound: "Cc1ccc2cc3cc(C(=O)N4CCCCCC4)oc3nc2c1"
  reported: "233%"
- compound: "Cc1ccc(C2CC2C(=O)NN)cc1 (stereo unspecified)"
  reported: "90.7%"
- compound: "CCN(CC)CCn1c(/N=C/c2cc(Br)ccc2O)nc2ccccc21"
  reported: "133%"
- compound: "O=C(CSc1nc2ccc([N+](=O)[O-])cc2[nH]1)c1ccc(Cl)cc1"
  reported: "85.9%"
- compound: "CC(C)CCC(C)NC(=O)c1ccc2nccnc2c1 (stereo unspecified)"
  reported: "43.3%"
- compound: "CCN1/C(=C\\c2ccc3ccccc3[n+]2CC)Sc2cc(C)ccc21"
  reported: "15.3%"
- compound: "Cc1ccc(/C=N/NC(=O)Cn2ccc(C(F)(F)F)n2)o1"
  reported: "128%"
- compound: "CCCC1NC(=S)NC(C)=C1C(C)=O (stereo unspecified)"
  reported: "103%"

[ask] Could you tell me which normalized cell count is on file for CCN1/C(=C/c2ccc3ccc(C)cc3[n+]2CC)Sc2ccccc21 ?
[reply] 10.5%

[ask] Tell me the measured normalized cell count of COc1ccc(-n2nc3c(c2NC(=O)c2ccc(N4C(=O)CCC4=O)cc2)CSC3)cc1 , please.
[reply] 73.5%

[ask] Reported normalized cell count, compound CCOc1ccc(N2C(=O)Nc3ccccc3C2(O)C(=O)NCc2ccco2)cc1 (stereo unspecified) : ____
[reply] 74.7%

====

Assay: insulin gene promoter stimulation in islet cells – imaging, TRM-6 cells (human fetal islet line), eGFP reporter, cell count, primary screen (AID 1296)
Conditions: at 2 µM; measured here: cell count (toxicity)
The whole screen tested about 130,000 compounds, of which about 1,000 (0.77%) were called active. Roughly 1% stayed inconclusive and do not appear here. This excerpt belongs to a sample that is enriched for actives.
readout name: normalized cell count (%)
Give the number; % is assumed, so skip it.

Sample records with normalized cell count:
- compound: "CC1(C)C2CC=C(/C=N/NC(=O)c3ccc(Cl)cc3)C1C2 (stereo unspecified)"
  units: "%"
  normalized cell count: 104
- compound: "O=C(CSCc1ccc([N+](=O)[O-])cc1)Nc1cccc(C(=O)Nc2ccccc2C(=O)O)c1"
  units: "%"
  normalized cell count: 107
- compound: "CC1Cc2ccccc2N1C(=O)CSc1nc2ccccc2o1 (stereo unspecified)"
  units: "%"
  normalized cell count: 87.7
- compound: "CN(C)CCCCCN(C)Cc1cc2ccccc2o1"
  units: "%"
  normalized cell count: 86.1
- compound: "CC(C)(C)NC(=O)CN(C(=O)c1ccc(Cl)nc1)c1cccc2ccccc12"
  units: "%"
  normalized cell count: 93

[ask] Please look up its normalized cell count: Cn1nccc1CNC(=O)c1ccnn1C
[reply] 127

[ask] Form field: reported normalized cell count of O=C(CSc1nc2ccccc2o1)N1c2ccccc2Sc2ccc(Cl)cc21
[reply] 77.2

[ask] I am curious: what normalized cell count value has been reported for CC(C)COP(=O)(c1ccc(N(C)C)cc1)C(Nc1ccccc1)c1cccnc1 (stereo unspecified) ?
[reply] 145

[ask] Requested read-out: normalized cell count. Entry: Cc1ccc(S(=O)(=O)N(CC(=O)N2CCc3ccccc3C2)c2cccc(Cl)c2)cc1
[reply] 94.9

[ask] Quick one: normalized cell count for O=C(CN1C(=O)CCC1=O)Nc1ccc(S(=O)(=O)N2CCOCC2)cc1 ?
[reply] 72.6

[ask] # query: normalized cell count of entry CC(=O)NCCC(=O)Nc1nc(C)c(Cc2ccc3c(c2)OCO3)s1
[reply] 42.1
